System: Influenza B virus
Assay: Antiviral activity against amantidine and rimantadine-resistant Influenza B virus (B/HK/5/72) infected in MDCK cells assessed as virus-induced cytopathic effect by MTS assay
Format: functional, cell-based
Details: B/Hong Kong/05/1972, MDCK
// reported EC50 for each item listed

| compound | EC50 |
| --- | --- |
| CN(C)C12CC3(C)CC(CC3(C)C1)C2(C)C | > 100 µM |
| CCC1(CC)C2CC3CC(C2)CC1(N)C3 | > 100 µM |
| NC12CC3CC(CC(C3)C13CCCCC3)C2 | > 100 µM |
| CNC12CC3CC(CC(C3)C1(C)C)C2 | > 100 µM |
| NC12CC3CC(CC(C3)C1)C2 | > 100 µM |
| CC(N)C12CC3CC(CC(C3)C1)C2 (configuration not stated) | > 100 µM |
| CCCC1(CCC)C2CC3CC(C2)CC1(N(C)C)C3 | > 100 µM |

====

Test system: Influenza B virus
Experiment: Antiviral activity against amantidine and rimantadine-resistant Influenza B virus (B/HK/5/72) infected in MDCK cells assessed as virus-induced cytopathic effect by MTS assay
Format: functional, cell-based
Conditions: B/Hong Kong/05/1972, MDCK
pEC50: −log10 of the molar value.
measurementKind: pEC50

| compound | valueMeasured |
| --- | --- |
| CN(C)C12CC3CC(CC(C3)C1(C)C)C2 | < 4.00 |
| CC(C)C1C2CC3CC(C2)CC1(N)C3 (stereo unspecified) | < 4.00 |
| CCC1(CC)C2CC3CC(C2)CC1(N(C)C)C3 | < 4.00 |
| CC12CC3CC1(C)CC(N)(C2)C3(C)C | < 4.00 |
| CC(C)C1C2CC3CC(C2)CC1(N(C)C)C3 (stereo unspecified) | < 4.30 |
| NC(=O)c1ncn([C@@H]2O[C@H](CO)[C@@H](O)[C@H]2O)n1 | 5.09 |

====

Test system: Influenza A virus
Assay: Antiviral activity against amantadine-resistant Influenza A virus (A/PR/8/34 (H1N1)) infected in MDCK cells assessed as virus-induced cytopathic effect by MTS assay
Type: functional, organism-based, A/Puerto Rico/8/1934(H1N1)
Conditions: mdck
pEC50: −log10 of the molar value.
measurementKind: pEC50

| compound | assaySystem | valueMeasured |
| --- | --- | --- |
| NC(=O)c1ncn([C@@H]2O[C@H](CO)[C@@H](O)[C@H]2O)n1 [RIBAVIRIN] | Influenza A virus | 5.09 |

====

Test system: Influenza A virus
Test: Antiviral activity against amantadine-resistant Influenza A virus (A/PR/8/34 (H1N1)) infected in MDCK cells assessed as virus-induced cytopathic effect by MTS assay
Assay type: functional, organism-based, A/Puerto Rico/8/1934(H1N1)
Settings: Influenza A virus, A/Puerto Rico/8/1934(H1N1), MDCK
Recorded EC50, one value per entry.

| molSmiles | qualifier | EC50 [µM] |
| --- | --- | --- |
| CCC1(CC)C2CC3CC(C2)CC1(N)C3 | = | 1.7 |
| CC1(C)C2CC3CC(C2)CC1(N)C3 | = | 10 |
| CCNC12CC3CC(CC(C3)C1(C)C)C2 | > | 100 |

====

Assay: Selectivity index, ratio of CC50 for dog MDCK cells to EC50 for amantadine-resistant Influenza A virus (A/PR/8/34 (H1N1))
Format: toxicity, cell-based
Details: read-out: Ratio CC50/EC50
measurementKind: selectivity ratio

| molSmiles | valueMeasured |
| --- | --- |
| CCC1(CC)C2CC3CC(C2)CC1(N)C3 | > 50 |

====

Examples of molecules with documented pEC50 follow.
Tested on: Influenza A virus
Experiment: Antiviral activity against amantadine-resistant Influenza A virus (A/PR/8/34 (H1N1)) infected in MDCK cells assessed as virus-induced cytopathic effect by MTS assay
Format: functional, organism-based, A/Puerto Rico/8/1934(H1N1)
Details: Influenza A virus, A/Puerto Rico/8/1934(H1N1), MDCK
pEC50: −log10 of the molar value.

| molecule | qualifier | pEC50 |
| --- | --- | --- |
| CNC12CC3CC(CC(C3)C1(C)C)C2 | = | 5.00 |
| CC(C)C1C2CC3CC(C2)CC1(N)C3 (stereo not drawn) | = | 5.92 |
| CCCC1(CCC)C2CC3CC(C2)CC1(N(C)C)C3 | = | 5.17 |
| CC(C)C1C2CC3CC(C2)CC1(N(C)C)C3 (stereo not drawn) | = | 5.22 |
| CC1(C)C2CC3CC(C2)CC1(NCc1ccccc1)C3 | < | 4.00 |
| CC1(C)C2CC3CC(C2)CC1(N1CCCCC1)C3 | < | 4.00 |
| CN(Cc1ccccc1)C12CC3CC(CC(C3)C1(C)C)C2 | < | 4.00 |
| CN(C)C12CC3(C)CC(CC3(C)C1)C2(C)C | = | 5.24 |
| CCC1(CC)C2CC3CC(C2)CC1(N(C)C)C3 | = | 5.02 |
| CN(C)C12CC3CC(CC(C3)C1(C)C)C2 | = | 5.32 |
| CC12CC3CC1(C)CC(N)(C2)C3(C)C | = | 5.35 |
| CCCC1(CCC)C2CC3CC(C2)CC1(N)C3 | < | 4.00 |
| NC12CC3CC(CC(C3)C13CCCCC3)C2 | = | 6.05 |
